# METHOD_DESCRIPTION: Half life in Sprague-Dawley rat at 0.65 mg/kg, iv
# Format: ADME, organism-based
# Parameters: dose 0.65 mg/kg, route intravenous
# SETUP_CONDITIONS: in vivo
MEASURED_PARAMETER: half-life (h)
The response must be a number in h with no trailing unit.

Could you tell me which half-life is on file for O[C@H]1C[C@H](CN2CC[C@H](c3ccc(F)cc3Cl)[C@@H](O)C2)Cc2cccnc21 ?
1.2

====

# METHOD_DESCRIPTION: physchem
# Description: Dissociation constant, pKa by pH metric method
As shown below, each of these molecules has a reported pKa value.
I'd appreciate a reply containing only the number, no unit.

[
  {
    "STRUCTURE_AS_SMILES": "O[C@H]1C[C@H](CN2CC[C@H](c3ccc(F)cc3Cl)[C@@H](O)C2)Cc2cccnc21",
    "pKa": 7.4
  }
]

Now turn to the next molecule.
Could you tell me which pKa is on file for Cc1ccccc1[C@@H]1CCN(C[C@@H]2CCc3cccnc3[C@@H](O)C2)C[C@H]1O ?
7.8
